Assay read-out MIC; system under study: S. aureus ATCC.

Identify the reported MIC for the following entry. C[C@@H](O)[C@H]1C(=O)N2C(C(=O)O)=C(S[C@@H]3CN[C@H](C(=O)N(C)C)C3)[C@H](C)[C@H]12 [MEM, meropenem]
< 1 µg/mL

Identify the reported MIC for the following entry. C[C@@H](O)[C@H]1C(=O)N2C(C(=O)O)=C(SCCN=CN)C[C@H]12 [IMP, imipenem]
< 1 µg/mL

Identify the reported MIC for the following entry. CN(C)[C@@H]1C(O)=C(C(N)=O)C(=O)[C@@]2(O)C(O)=C3C(=O)c4c(O)cccc4[C@@](C)(O)[C@H]3C[C@@H]12 [TET, tetracycline]
< 1 µg/mL

Data credit: paper PMC12207908
